biological target: Integrin alpha-IIb/beta-3 (Homo sapiens, UniProt P05106+P08514); experiment: Binding affinity against integrin alpha 2b-beta 3 in enzyme linked immunosorbent assay (ELISA)
Sequence (P05106 27-788 limits assumed): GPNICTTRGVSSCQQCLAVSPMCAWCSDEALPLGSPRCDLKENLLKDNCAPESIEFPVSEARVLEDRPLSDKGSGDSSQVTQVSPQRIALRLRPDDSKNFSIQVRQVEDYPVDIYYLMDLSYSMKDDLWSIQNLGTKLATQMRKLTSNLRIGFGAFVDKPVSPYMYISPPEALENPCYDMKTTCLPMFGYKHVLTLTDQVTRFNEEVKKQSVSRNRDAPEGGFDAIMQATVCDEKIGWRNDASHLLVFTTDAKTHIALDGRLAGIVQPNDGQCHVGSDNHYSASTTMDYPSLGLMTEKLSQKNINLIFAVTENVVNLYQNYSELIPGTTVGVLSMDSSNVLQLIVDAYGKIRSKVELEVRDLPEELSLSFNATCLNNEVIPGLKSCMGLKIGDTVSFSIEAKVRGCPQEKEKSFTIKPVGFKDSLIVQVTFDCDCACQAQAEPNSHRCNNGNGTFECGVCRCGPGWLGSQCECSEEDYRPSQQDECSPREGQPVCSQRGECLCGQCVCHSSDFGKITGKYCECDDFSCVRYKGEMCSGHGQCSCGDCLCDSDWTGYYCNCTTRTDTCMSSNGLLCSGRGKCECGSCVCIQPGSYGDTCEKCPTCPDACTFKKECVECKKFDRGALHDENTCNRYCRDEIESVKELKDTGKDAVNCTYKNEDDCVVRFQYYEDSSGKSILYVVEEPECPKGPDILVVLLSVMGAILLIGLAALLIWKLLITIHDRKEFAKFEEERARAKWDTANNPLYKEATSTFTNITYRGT
Sequence (P08514 32-887 limits assumed): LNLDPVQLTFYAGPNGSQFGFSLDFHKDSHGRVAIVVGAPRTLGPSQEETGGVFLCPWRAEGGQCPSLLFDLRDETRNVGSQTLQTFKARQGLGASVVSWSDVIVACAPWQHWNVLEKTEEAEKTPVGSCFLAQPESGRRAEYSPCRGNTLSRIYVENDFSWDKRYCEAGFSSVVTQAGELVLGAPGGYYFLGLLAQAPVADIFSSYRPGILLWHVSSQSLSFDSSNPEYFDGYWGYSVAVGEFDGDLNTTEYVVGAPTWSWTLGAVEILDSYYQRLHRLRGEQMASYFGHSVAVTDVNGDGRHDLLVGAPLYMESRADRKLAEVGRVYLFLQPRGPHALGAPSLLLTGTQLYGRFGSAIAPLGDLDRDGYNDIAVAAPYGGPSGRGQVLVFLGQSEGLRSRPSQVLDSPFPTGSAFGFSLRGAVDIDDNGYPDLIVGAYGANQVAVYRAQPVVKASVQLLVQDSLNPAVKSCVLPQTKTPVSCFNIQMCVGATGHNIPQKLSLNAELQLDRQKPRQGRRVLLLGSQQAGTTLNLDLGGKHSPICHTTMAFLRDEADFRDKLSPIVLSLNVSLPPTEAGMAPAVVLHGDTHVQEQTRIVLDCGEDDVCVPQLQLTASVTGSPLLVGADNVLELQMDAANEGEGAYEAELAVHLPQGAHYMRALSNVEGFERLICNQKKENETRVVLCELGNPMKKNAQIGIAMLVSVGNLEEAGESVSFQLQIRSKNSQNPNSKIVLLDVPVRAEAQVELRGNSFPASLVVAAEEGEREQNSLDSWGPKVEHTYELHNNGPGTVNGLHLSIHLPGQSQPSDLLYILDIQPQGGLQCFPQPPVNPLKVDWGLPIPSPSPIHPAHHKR
Sequence (P08514 891-1039 limits assumed): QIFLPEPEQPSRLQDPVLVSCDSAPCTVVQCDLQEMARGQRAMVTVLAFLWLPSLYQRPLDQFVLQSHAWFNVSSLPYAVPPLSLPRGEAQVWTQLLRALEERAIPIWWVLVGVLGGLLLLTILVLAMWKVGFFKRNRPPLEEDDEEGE
Where a SMILES comes first, the peptide text is derived from it. Bridges are numbered along the chain shown (N, C = ends).
Listed below: pIC50 values for each entry.
Lab note: report pIC50 as minus log10 of the concentration in molar units, number only.

Example cases with answers are listed next.
CC(C)C[C@@H]1NC(=O)[C@H](CC(=O)O)NC(=O)CNC(=O)[C@H](CCCNC(=N)N)NC(=O)[C@H](Cc2c[nH]cn2)NC(=O)CNC(=O)[C@@H](NC(=O)[C@@H](N)CCCNC(=N)N)C(C)(C)SSC[C@@H](C(=O)N[C@@H](CCCNC(=N)N)C(=O)O)NC(=O)[C@H](CCCNC(=N)N)NC1=O	7.40
N=C(N)NCCC[C@H](NC(=O)[C@@H]1CSSC2(CCCCC2)[C@H](NC(=O)[C@@H](N)CCCNC(=N)N)C(=O)NCC(=O)N[C@@H](Cc2c[nH]cn2)C(=O)N[C@@H](CCCNC(=N)N)C(=O)NCC(=O)N[C@@H](CC(=O)O)C(=O)N[C@@H](Cc2ccc(I)cc2)C(=O)N[C@@H](CCCNC(=N)N)C(=O)N1)C(=O)O	8.00
CC[C@H](C)[C@@H]1NC(=O)[C@@H](NC(C)=O)CSSC[C@@H](C(N)=O)NC(=O)[C@H](CCCNC(=N)N)NC(=O)[C@H](Cc2ccc(O)cc2)NC(=O)[C@H](CC(=O)O)NC(=O)CNC(=O)[C@H](CCCNC(=N)N)NC(=O)[C@@H]2CCCN2C1=O (Ac-CIPRGDYRC-NH2; disulfide 1-9)	8.52

Kindly review the next compound as well.
Reported pIC50 of `CC(=O)N[C@H]1CSSC[C@@H](C(N)=O)NC(=O)[C@H](CCCN=C(N)N)NC(=O)[C@H](Cc2ccc([N+](=O)[O-])cc2)NC(=O)[C@H](CC(=O)O)NC(=O)CNC(=O)[C@H](CCCN=C(N)N)NC(=O)[C@@H]2CCCN2C(=O)[C@H](CC(N)=O)NC1=O` : 7.77

###

target: Integrin alpha-V/beta-5 (Homo sapiens, UniProt P06756+P18084); assay: Binding affinity against integrin alpha V-beta5 in enzyme linked immunosorbent assay (ELISA)
Sequence (P06756 31-889 limits assumed): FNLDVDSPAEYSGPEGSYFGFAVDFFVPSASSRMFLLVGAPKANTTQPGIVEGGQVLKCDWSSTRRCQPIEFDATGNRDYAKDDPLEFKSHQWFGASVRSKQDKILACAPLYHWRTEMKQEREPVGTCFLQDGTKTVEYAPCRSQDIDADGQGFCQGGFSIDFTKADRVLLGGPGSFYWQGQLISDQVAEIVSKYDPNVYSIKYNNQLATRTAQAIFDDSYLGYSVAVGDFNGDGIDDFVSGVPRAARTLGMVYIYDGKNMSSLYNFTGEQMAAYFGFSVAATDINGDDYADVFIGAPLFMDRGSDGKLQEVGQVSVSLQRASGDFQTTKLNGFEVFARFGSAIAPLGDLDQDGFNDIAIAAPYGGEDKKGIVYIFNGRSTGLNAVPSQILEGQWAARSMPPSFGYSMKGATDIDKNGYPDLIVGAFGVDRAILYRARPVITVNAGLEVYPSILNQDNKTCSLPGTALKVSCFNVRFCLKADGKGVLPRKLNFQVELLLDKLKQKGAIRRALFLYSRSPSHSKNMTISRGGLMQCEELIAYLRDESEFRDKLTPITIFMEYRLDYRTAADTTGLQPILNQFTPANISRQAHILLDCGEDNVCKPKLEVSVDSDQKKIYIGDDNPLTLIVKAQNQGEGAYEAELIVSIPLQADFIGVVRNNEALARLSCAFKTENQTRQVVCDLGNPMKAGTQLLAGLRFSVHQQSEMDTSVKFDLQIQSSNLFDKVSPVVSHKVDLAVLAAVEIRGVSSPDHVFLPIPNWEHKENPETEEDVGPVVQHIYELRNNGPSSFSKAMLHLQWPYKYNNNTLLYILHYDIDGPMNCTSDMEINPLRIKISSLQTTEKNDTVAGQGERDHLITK
Sequence (P06756 891-1048 limits assumed): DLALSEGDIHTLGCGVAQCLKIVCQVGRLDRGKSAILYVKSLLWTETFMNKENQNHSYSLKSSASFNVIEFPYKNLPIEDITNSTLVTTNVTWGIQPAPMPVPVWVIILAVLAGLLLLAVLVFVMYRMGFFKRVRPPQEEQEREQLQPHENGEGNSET
Sequence (P18084 24-799 limits assumed): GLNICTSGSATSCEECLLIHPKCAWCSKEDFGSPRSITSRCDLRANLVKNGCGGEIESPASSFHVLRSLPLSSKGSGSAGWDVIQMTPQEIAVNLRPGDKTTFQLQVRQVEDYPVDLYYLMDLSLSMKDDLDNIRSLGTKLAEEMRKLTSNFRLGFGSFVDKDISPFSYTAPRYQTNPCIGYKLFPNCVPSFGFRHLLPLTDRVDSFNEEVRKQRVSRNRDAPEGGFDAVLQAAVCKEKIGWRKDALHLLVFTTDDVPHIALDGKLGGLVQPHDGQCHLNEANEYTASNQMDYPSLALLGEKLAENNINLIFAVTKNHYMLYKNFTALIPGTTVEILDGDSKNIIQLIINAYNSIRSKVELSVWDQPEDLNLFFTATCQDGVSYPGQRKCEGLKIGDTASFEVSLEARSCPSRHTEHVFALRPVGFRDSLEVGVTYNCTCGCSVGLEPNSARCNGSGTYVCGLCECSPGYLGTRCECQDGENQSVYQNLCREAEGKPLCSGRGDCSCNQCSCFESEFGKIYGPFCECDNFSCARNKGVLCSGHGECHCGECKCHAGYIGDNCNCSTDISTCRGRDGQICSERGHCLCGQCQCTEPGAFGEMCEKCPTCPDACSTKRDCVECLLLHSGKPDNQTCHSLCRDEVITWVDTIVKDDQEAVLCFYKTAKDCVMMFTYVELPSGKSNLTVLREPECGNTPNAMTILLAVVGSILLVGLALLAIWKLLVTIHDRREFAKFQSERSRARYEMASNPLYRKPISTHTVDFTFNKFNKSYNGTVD
Measured IC50 of individual entries
Value expressed in µM; do not type the unit.

Guide cases for IC50, answers given:
CC(C)C[C@@H]1NC(=O)[C@H](CC(=O)O)NC(=O)CNC(=O)[C@H](CCCNC(=N)N)NC(=O)[C@H](Cc2c[nH]cn2)NC(=O)CNC(=O)[C@H](NC(=O)[C@@H](N)CCCNC(=N)N)C(C)(C)SSC[C@@H](C(=O)N[C@@H](CCCNC(=N)N)C(=O)O)NC(=O)[C@H](CCCNC(=N)N)NC1=O	10
CCCCOc1ccc(C[C@@H]2NC(=O)[C@H](CC(=O)O)NC(=O)CNC(=O)[C@H](CCCNC(=N)N)NC(=O)[C@@H]3CCCN3C(=O)[C@H](CC(N)=O)NC(=O)[C@@H](NC(C)=O)CSSC[C@@H](C(N)=O)NC(=O)[C@H](CCCNC(=N)N)NC2=O)cc1	10
CC(=O)N[C@H]1CSSC[C@@H](C(N)=O)NC(=O)[C@H](CCCN=C(N)N)NC(=O)[C@H](Cc2ccc([N+](=O)[O-])cc2)NC(=O)[C@H](CC(=O)O)NC(=O)CNC(=O)[C@H](CCCN=C(N)N)NC(=O)[C@@H]2CCCN2C(=O)[C@H](CC(N)=O)NC1=O	4.8
COc1ccc(C[C@@H]2NC(=O)[C@H](CC(=O)O)NC(=O)CNC(=O)[C@H](CCCN=C(N)N)NC(=O)[C@@H]3CCCN3C(=O)[C@H](CC(N)=O)NC(=O)[C@@H](NC(C)=O)C3(CCCCC3)SSC[C@@H](C(N)=O)NC(=O)[C@H](CCCN=C(N)N)NC2=O)cc1	2.34

Now look at this entry.
Lab book: IC50 of `COc1ccc(C[C@@H]2NC(=O)[C@H](CC(=O)O)NC(=O)CNC(=O)[C@H](CCCNC(=N)N)NC(=O)[C@@H]3CCCN3C(=O)[C@H](CC(N)=O)NC(=O)[C@@H](NC(C)=O)CSSC[C@@H](C(N)=O)NC(=O)[C@H](C)NC2=O)cc1` noted as 8.85
